Where do these numbers come from? They come from ChEMBL document CHEMBL4196235.

Experiment: Selectivity index, ratio of CC50 for HEK293T cells to EC50 for bloodstream trypomastigote stage of wild type Trypanosoma brucei brucei Lister 427
Format: toxicity
Settings: human; read-out: Ratio CC50/EC50
Lab note: anything with selectivity ratio at or over 3 counts as yes; the rest go in no.

Would you please look over these solved cases?
| COMPOUND_STRING | LABEL_CLASS |
| --- | --- |
| Cc1cc(OCCCCCCCCCCCCC[P+](c2ccccc2)(c2ccccc2)c2ccccc2)cc(O)c1C(=O)O.[Br-] | yes |
| Cc1cc(OCCCCCCCCCCCCC[n+]2cccc3ccccc32)ccc1C(=O)O.[Br-] | no |
| COC(=O)c1ccc(OCCCCCCCCCCCCC[P+](c2ccccc2)(c2ccccc2)c2ccccc2)cc1C.[Br-] | yes |
| O=Cc1ccc(OCCCCCCCCCCCCC[n+]2cccc3ccccc32)cc1O | yes |
| COC(=O)c1ccc(OCCCCCCCCCCCCC[n+]2cccc3ccccc32)cc1F.[Br-] | no |
| COC(=O)c1ccc(OC/C(C)=C/CC/C(C)=C/COC(C)=O)cc1C | no |

Please tell me: is the compound COC(=O)c1ccc(OCCCCCCCCCCCCCBr)cc1O at or over 3 in terms of selectivity ratio?
yes

Please tell me: is the compound COC(=O)c1ccc(OC/C(C)=C/CC/C(C)=C/COC(C)=O)cc1O at or over 3 in terms of selectivity ratio?
no

Please tell me: is the compound O=C(O)c1ccc(OCCCCCCCCCC[P+](c2ccccc2)(c2ccccc2)c2ccccc2)cc1O.[Br-] at or over 3 in terms of selectivity ratio?
yes

====

Tested on: Trypanosoma brucei brucei
Assay: Antiparasitic activity against bloodstream trypomastigote stage of wild type Trypanosoma brucei brucei Lister 427 after 48 hrs by resazurin dye based fluorescence assay
Format: functional, organism-based
Settings: Lister 427, 48 h
Items are presented alongside their recorded log10 of EC50.
Reminder: these figures are log10 of reported EC50, in nM before transformation.

Worked examples, 3 compounds total:
| COMPOUND_STRING | log10 of EC50 |
| --- | --- |
| COC(=O)c1ccc(OC/C(C)=C/CC/C(C)=C/COC(C)=O)cc1C | 4.23 |
| Cc1cc(OCCCCCCCCCCCCC[P+](c2ccccc2)(c2ccccc2)c2ccccc2)ccc1C(=O)O.[Br-] | 2.28 |
| O=C(O)c1ccc(OCCCCCCCCCCCCC[P+](c2ccccc2)(c2ccccc2)c2ccccc2)cc1F.[Br-] | 1.57 |

Quickly give me recorded log10 of EC50 for CCOC(=O)c1c(C)cc(OCCCCCCCCCCCCCBr)cc1O
3.95

Quickly give me recorded log10 of EC50 for N=C(N)c1ccc(OCCCCCOc2ccc(C(=N)N)cc2)cc1
0.62

====

Experiment: Cytotoxicity against HEK293T cells after 30 hrs by resazurin dye based fluorescence assay
Type: cell-based, HEK-293T
Conditions: human
Items are presented alongside their recorded CC50 at 30 h.
The figure you give is taken to be in µM; do not add the unit.

Worked examples, 4 compounds total:
| COMPOUND_STRING | NUMERIC_READOUT |
| --- | --- |
| O=C(O)c1ccc(OCCCCCCCCCCCCC[P+](c2ccccc2)(c2ccccc2)c2ccccc2)cc1F.[Br-] | 8.35 |
| COC(=O)c1ccc(OCCCCCCCCCCCCC[n+]2cccc3ccccc32)cc1C.[Br-] | 0.3 |
| CCOC(=O)c1c(C)cc(OCCCCCCCCCCCCCBr)cc1O | 29.6 |
| COC(=O)c1ccc(OCCCCCCCCCCCCC[P+](c2ccccc2)(c2ccccc2)c2ccccc2)cc1F.[Br-] | 0.22 |

Quickly give me recorded CC50 at 30 h for COC(=O)c1ccc(OC/C(C)=C/CC/C(C)=C/COC(C)=O)cc1C
45.1

Quickly give me recorded CC50 at 30 h for Cc1cc(OCCCCCCCCCCCCC[P+](c2ccccc2)(c2ccccc2)c2ccccc2)cc(O)c1C(=O)O.[Br-]
0.83

Quickly give me recorded CC50 at 30 h for COC(=O)c1ccc(OCCCCCCCCCCCCC[n+]2cccc3ccccc32)cc1F.[Br-]
3.36

====

Assay: Selectivity index, ratio of CC50 for HEK293T cells to EC50 for pentamidine-resistant bloodstream trypomastigote stage of Trypanosoma brucei brucei harboring AQP1 to 3 deletions
Type: toxicity
Details: human; read-out: Ratio CC50/EC50
READOUT_NAME: selectivity ratio
Please state the value as a number alone, without comment.

Quickly give me recorded selectivity ratio for Cc1cc(OCCCCCCCCCCCCC[P+](c2ccccc2)(c2ccccc2)c2ccccc2)cc(O)c1C(=O)O.[Br-]
230

====

Molecular target: Alternative oxidase, mitochondrial (Trypanosoma brucei brucei, UniProt Q26710)
Sequence (Q26710 whole entry): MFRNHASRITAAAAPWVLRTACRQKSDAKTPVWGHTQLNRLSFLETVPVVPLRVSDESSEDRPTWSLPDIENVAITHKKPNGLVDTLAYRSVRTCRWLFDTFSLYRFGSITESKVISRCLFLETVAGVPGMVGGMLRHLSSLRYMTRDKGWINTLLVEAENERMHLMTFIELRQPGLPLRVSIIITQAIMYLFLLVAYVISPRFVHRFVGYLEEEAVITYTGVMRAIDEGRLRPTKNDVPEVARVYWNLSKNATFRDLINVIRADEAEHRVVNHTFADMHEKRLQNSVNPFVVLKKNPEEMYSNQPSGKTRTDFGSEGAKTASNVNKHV
Experiment: Inhibition of recombinant Trypanosoma brucei brucei alternative oxidase using ubiquinol-1 as substrate incubated for 2 mins followed by substrate addition by spectrophotometric method
READOUT_NAME: IC50 (µM)
The figure you give is taken to be in µM; do not add the unit.

| COMPOUND_STRING | MEASUREMENT_UNIT | NUMERIC_READOUT |
| --- | --- | --- |
| COC(=O)c1ccc(OCCCCCCCCCCCCC[P+](c2ccccc2)(c2ccccc2)c2ccccc2)cc1F.[Br-] | µM | 0.74 |
| C/C(=C\CO)CC/C=C(\C)COc1ccc(C(=O)O)c(O)c1 | µM | 2.1 |
| CC(=O)OC/C=C(\C)CC/C=C(\C)COC(=O)c1ccc(O)cc1O | µM | 0.0091 |

Quickly give me recorded IC50 for COC(=O)c1cc(OCCCCCCCCCCCCC[P+](c2ccccc2)(c2ccccc2)c2ccccc2)ccc1O.[Br-]
0.012

Quickly give me recorded IC50 for C/C(=C\CO)CC/C=C(\C)COc1ccc(C(=O)O)cc1
2.4

Quickly give me recorded IC50 for C/C(=C\CO)CC/C=C(\C)COc1ccc(C(=O)O)c(C)c1
0.92

Quickly give me recorded IC50 for Cc1cc(OCCCCCCCCCCCCC[P+](c2ccccc2)(c2ccccc2)c2ccccc2)cc(O)c1C(=O)O.[Br-]
0.0042

Quickly give me recorded IC50 for C/C(=C\CO)CC/C=C(\C)CC/C=C(\C)COc1cc(C)c(C(=O)O)c(O)c1
0.0031

====

Test system: Trypanosoma brucei brucei
Assay: Antiparasitic activity against bloodstream trypomastigote stage of wild type Trypanosoma brucei brucei Lister 427 after 48 hrs by resazurin dye based fluorescence assay
Type: functional, organism-based
Conditions: Lister 427, 48 h
READOUT_NAME: log10 EC50 (log10 of the value in nM)
Reminder: these figures are log10 of reported EC50, in nM before transformation.

Quickly give me recorded log10 EC50 for COC(=O)c1ccc(OCCCCCCCCCCCCC[P+](c2ccccc2)(c2ccccc2)c2ccccc2)cc1O.[Br-]
1.26

Quickly give me recorded log10 EC50 for Cc1cc(OCCCCCCCCCCCCC[P+](c2ccccc2)(c2ccccc2)c2ccccc2)cc(O)c1C(=O)O.[Br-]
1.11

Quickly give me recorded log10 EC50 for COC(=O)c1ccc(OCCCCCCCCCCCCC[n+]2cccc3ccccc32)cc1C.[Br-]
2.20

Quickly give me recorded log10 EC50 for O=Cc1ccc(OCCCCCCCCCCCCC[n+]2cccc3ccccc32)cc1O
3.24

Quickly give me recorded log10 EC50 for Cc1cc(OCCCCCCCCCCCCC[n+]2cccc3ccccc32)ccc1C(=O)O.[Br-]
4.03

====

Assay: Selectivity index, ratio of CC50 for HEK293T cells to EC50 for bloodstream trypomastigote stage of wild type Trypanosoma brucei brucei Lister 427
Type: toxicity
Conditions: human; read-out: Ratio CC50/EC50
Lab note: anything with selectivity ratio at or over 3 counts as Fulfilled; the rest go in Not fulfilled.

Would you please look over these solved cases?
| COMPOUND_STRING | LABEL_CLASS |
| --- | --- |
| CCOC(=O)c1c(C)cc(OC/C(C)=C/CC/C(C)=C/CC/C(C)=C/COC(C)=O)cc1O | Fulfilled |
| CCOC(=O)c1c(C)cc(OCCCCCCCCCCCCC[n+]2cccc3ccccc32)cc1O.[Br-] | Not fulfilled |
| O=C(O)c1ccc(OCCCCCCCCCCCCC[P+](c2ccccc2)(c2ccccc2)c2ccccc2)cc1F.[Br-] | Fulfilled |
| COC(=O)c1ccc(OCCCCCCCCCCCCC[n+]2cccc3ccccc32)cc1C.[Br-] | Not fulfilled |

Please tell me: is the compound COC(=O)c1ccc(OCCCCCCCCCCCCC[P+](c2ccccc2)(c2ccccc2)c2ccccc2)cc1F.[Br-] at or over 3 in terms of selectivity ratio?
Fulfilled

Please tell me: is the compound O=C(O)c1ccc(OCCCCCCCCCCCCC[P+](c2ccccc2)(c2ccccc2)c2ccccc2)cc1O.[Br-] at or over 3 in terms of selectivity ratio?
Fulfilled

Please tell me: is the compound CCOC(=O)c1c(C)cc(OCCCCCCCCCCCCCBr)cc1O at or over 3 in terms of selectivity ratio?
Fulfilled

Please tell me: is the compound Cc1cc(OCCCCCCCCCCCCC[P+](c2ccccc2)(c2ccccc2)c2ccccc2)ccc1C(=O)O.[Br-] at or over 3 in terms of selectivity ratio?
Fulfilled

Please tell me: is the compound COC(=O)c1ccc(OCCCCCCCCCC[P+](c2ccccc2)(c2ccccc2)c2ccccc2)cc1O.[Br-] at or over 3 in terms of selectivity ratio?
Fulfilled
